test system: Pasteurella multocida; assay: minimum inhibitory concentration (MIC); details: isolate (source animal id): 216
Overview of reported minimum inhibitory concentration across a group of compounds:
Write down the numeric answer in µg/mL and omit the unit.

| compound | targetDesc | minimum inhibitory concentration / µg/mL |
| --- | --- | --- |
| CC[C@H]1OC(=O)C[C@@H](O)[C@H](C)[C@@H](O[C@@H]2O[C@H](C)[C@@H](O)[C@H](N(C)C)[C@H]2O)[C@@H](CCN2C[C@H](C)C[C@H](C)C2)C[C@@H](C)C(=O)/C=C/C(C)=C/[C@@H]1CO[C@@H]1O[C@H](C)[C@@H](O)[C@@H](OC)[C@H]1OC [Tilmicosin] | Pasteurella multocida | 8 |

Kindly consider the entry below.
*Q* What is its minimum inhibitory concentration for Pasteurella multocida? Entry: CNC(C)C1CCC(N)C(OC2C(N)CC(N)C(OC3OCC(C)(O)C(NC)C3O)C2O)O1 (centres undefined) [Gentamicin]
*A* 4

---

tested on: Escherichia coli; assay: minimum inhibitory concentration (MIC); settings: isolate (source animal id): 106
measure: minimum inhibitory concentration

These solved cases illustrate the format of a correct answer.
| molecule | minimum inhibitory concentration |
| --- | --- |
| CC[C@H]1OC(=O)C[C@@H](O)[C@H](C)[C@@H](O[C@@H]2O[C@H](C)[C@@H](O[C@H]3C[C@@](C)(O)[C@@H](O)[C@H](C)O3)[C@H](N(C)C)[C@H]2O)[C@@H](CC=O)C[C@@H](C)C(=O)/C=C/C(C)=C/[C@@H]1CO[C@@H]1O[C@H](C)[C@@H](O)[C@@H](OC)[C@H]1OC [Tylosin] | > 32 µg/mL |
| CO/N=C(\C(=O)N[C@@H]1C(=O)N2C(C(=O)O)=C(CSC(=O)c3ccco3)CS[C@H]12)c1csc(N)n1 [Ceftiofur] | 0.5 µg/mL |

Kindly consider the entry below.
*Q* Tell me the measured minimum inhibitory concentration of CC1(C)S[C@@H]2[C@H](NC(=O)Cc3ccccc3)C(=O)N2[C@H]1C(=O)O [Penicillin] , please.
*A* > 8 µg/mL

---

system: Histophilus somni; assay: minimum inhibitory concentration (MIC); conditions: isolate (source animal id): 296
Overview of reported minimum inhibitory concentration across a group of molecules:

These solved cases illustrate the format of a correct answer.
| smilesEntry | targetDesc | minimum inhibitory concentration |
| --- | --- | --- |
| CN(C)[C@@H]1C(O)=C(C(N)=O)C(=O)[C@@]2(O)C(O)=C3C(=O)c4c(O)cccc4[C@@](C)(O)[C@H]3C[C@@H]12 | Histophilus somni | 1 µg/mL |
| COc1cc(NS(=O)(=O)c2ccc(N)cc2)nc(OC)n1 | Histophilus somni | ≤ 256 µg/mL |
| CC1(C)S[C@@H]2[C@H](NC(=O)[C@H](N)c3ccccc3)C(=O)N2[C@H]1C(=O)O | Histophilus somni | ≤ 0.25 µg/mL |

Kindly consider the entry below.
*Q* What is its minimum inhibitory concentration for Histophilus somni? Entry: CC1(C)S[C@@H]2[C@H](NC(=O)Cc3ccccc3)C(=O)N2[C@H]1C(=O)O
*A* ≤ 0.12 µg/mL

---

test system: Pasteurella multocida; test: minimum inhibitory concentration (MIC); conditions: isolate (source animal id): 209
measure: minimum inhibitory concentration

*Q* Tell me the measured minimum inhibitory concentration of CCCNC[C@]1(O)[C@H](C)O[C@@H](O[C@H]2[C@H](C)[C@@H](O[C@@H]3O[C@H](C)C[C@H](N(C)C)[C@H]3O)[C@](C)(O)C[C@@H](C)CN[C@H](C)[C@@H](O)[C@](C)(O)[C@@H](CC)OC(=O)[C@@H]2C)C[C@@]1(C)OC , please.
*A* ≤ 8 µg/mL

*Q* Moving on to the next compound: CCN1CCN(c2cc3c(cc2F)c(=O)c(C(=O)O)cn3C2CC2)CC1
*A* ≤ 0.12 µg/mL

*Q* Moving on to the next compound: CN(C)[C@@H]1C(O)=C(C(N)=O)C(=O)[C@@]2(O)C(O)=C3C(=O)c4c(O)cccc4[C@@](C)(O)[C@H]3C[C@@H]12
*A* > 8 µg/mL

*Q* Moving on to the next compound: NC[C@@H]1O[C@H](O[C@H]2[C@@H](O)[C@H](O[C@@H]3[C@@H](O)[C@H](N)C[C@H](N)[C@H]3O[C@H]3O[C@H](CN)[C@@H](O)[C@H](O)[C@H]3N)O[C@@H]2CO)[C@H](N)[C@@H](O)[C@@H]1O
*A* 32 µg/mL

*Q* Moving on to the next compound: CC1(C)S[C@@H]2[C@H](NC(=O)Cc3ccccc3)C(=O)N2[C@H]1C(=O)O
*A* ≤ 0.12 µg/mL

*Q* Moving on to the next compound: COc1cc(NS(=O)(=O)c2ccc(N)cc2)nc(OC)n1
*A* > 256 µg/mL

*Q* Moving on to the next compound: CC[C@H]1OC(=O)C[C@@H](O)[C@H](C)[C@@H](O[C@@H]2O[C@H](C)[C@@H](O[C@H]3C[C@@](C)(O)[C@@H](O)[C@H](C)O3)[C@H](N(C)C)[C@H]2O)[C@@H](CC=O)C[C@@H](C)C(=O)/C=C/C(C)=C/[C@@H]1CO[C@@H]1O[C@H](C)[C@@H](O)[C@@H](OC)[C@H]1OC
*A* 32 µg/mL

*Q* Moving on to the next compound: CC[C@H]1OC(=O)C[C@@H](O)[C@H](C)[C@@H](O[C@@H]2O[C@H](C)[C@@H](O)[C@H](N(C)C)[C@H]2O)[C@@H](CCN2C[C@H](C)C[C@H](C)C2)C[C@@H](C)C(=O)/C=C/C(C)=C/[C@@H]1CO[C@@H]1O[C@H](C)[C@@H](O)[C@@H](OC)[C@H]1OC
*A* 4 µg/mL

Data origin: the supplement of paper PMC8612539
